I'd appreciate it if you could supply ΔG0 values for the items below.
- method_notes: Isothermal equilibrium denaturation in guanidine HCl monitored by CD
- Assay type: physicochemical
- conditions_used: GuHCl, 298K, CD signal at 227 nm
Express the reported value numerically, then name its unit.

molecule | measurement
SYM6/ΔΔ: SYM6 FGF-1 mutant plus both Δ104-106 and Δ120-122 deletion mutations, SEQ ID NO: 1 (protein, Human FGF-1 mutant SYM6DD) FNLPPGNYKKPKLLYCSNGGHFLRILPDGTVDGTRDRSDQHIQFQLSAESVGEVYIKSTETGQYLAIDTDGLVYGSQTPNEECLFLERLEENHYNTYISKKHGWFLGIKKNGSVKGTHYGQKAILFLPLPVSSD | 8.1 ± 0.14 kcal/mol
SYM5: FGF-1 core mutant Leu44→Phe/Leu73→Val/Val109→Leu/Leu111→Ile/Cys117→Val (protein, UniProt P05230 16-155, looked up, variant L44F L73V V109L L111I C117V) Fibroblast growth factor 1: FNLPPGNYKKPKLLYCSNGGHFLRILPDGTVDGTRDRSDQHIQFQLSAESVGEVYIKSTETGQYLAMDTDGLVYGSQTPNEECLFLERLEENHYNTYISKKHAEKNWFLGIKKNGSVKRGPRTHYGQKAILFLPLPVSSD | 4.4 ± 0.096 kcal/mol
SYM6/Δ120-122: SYM6 FGF-1 mutant plus Arg119→Gly/ΔGly120/ΔPro121/ΔArg122 (protein, UniProt P05230 16-155, looked up, variant L44F M67I L73V V109L L111I C117V R119G del120-122) Fibroblast growth factor 1: FNLPPGNYKKPKLLYCSNGGHFLRILPDGTVDGTRDRSDQHIQFQLSAESVGEVYIKSTETGQYLAIDTDGLVYGSQTPNEECLFLERLEENHYNTYISKKHAEKNWFLGIKKNGSVKGTHYGQKAILFLPLPVSSD | 3.75 ± 0.048 kcal/mol

Note: attention shifts to another entry.
Report ΔG0 for SYM5/ΔΔ: SYM5 FGF-1 mutant plus both Δ104-106 and Δ120-122 deletion mutations (protein, UniProt P05230 16-155, looked up, variant L44F L73V V109L L111I C117V A103G del104-106 R119G del120-122) Fibroblast growth factor 1: FNLPPGNYKKPKLLYCSNGGHFLRILPDGTVDGTRDRSDQHIQFQLSAESVGEVYIKSTETGQYLAMDTDGLVYGSQTPNEECLFLERLEENHYNTYISKKHGWFLGIKKNGSVKGTHYGQKAILFLPLPVSSD 8.17 ± 0.287 kcal/mol
